- System: SN12C renal
- experimentSummary: NCI tumour cell line growth inhibition, 48 h
reportedProperty: TGI

Solved entries:
molecule="NC(CO)Cc1cnc[nH]1 (stereo not given)" result="> 100 µM"
molecule=COc1ccc2nc(-c3ccc(OCc4ccccc4)cc3)ccc2c1 result="> 100 µM"
molecule="Cc1ccc2c(c1C)CC1(Cc3c(ccc4c3CCC4)C1=O)C2=O (stereo not given)" result="> 100 µM"
molecule=N#CCCN(c1ccc(C=Nc2cccc([N+](=O)[O-])c2)cc1)S(=O)(=O)c1ccccc1 result="> 100 µM"
molecule=c1ccc([P+](CCNCCNCC[P+](c2ccccc2)(c2ccccc2)c2ccccc2)(c2ccccc2)c2ccccc2)cc1 result="> 100 µM"
molecule=COc1ccc(C(=O)Nc2ncc(Cc3ccc(Cl)cc3)s2)cc1 result="> 100 µM"
molecule=CSC1=Nc2ccccc2N(C)c2c1c(-c1ccccc1)nn2C result="> 100 µM"
molecule=O=c1[nH]c2nc3ccccc3c(=O)n2/c1=C/c1ccc(O)cc1 result="> 100 µM"

Param item = `COc1cccc(/C=C/C(=O)c2cc3c(N)c(C(=O)Nc4ccccc4C)sc3nc2C)c1` ; retrieve measured TGI.
2.13 µM

Param item = `N#Cc1c(NC(=O)c2cccc(C(F)(F)F)c2)sc2c1CCC(=O)C2` ; retrieve measured TGI.
4.05 µM

Param item = CCCCCCCCCC[C@@H](O)[C@H]1CC[C@H]([C@H]2CC[C@H]([C@H](O)CCCCCCCCCC[C@@H]3CC(CC(C)=O)C(=O)O3)O2)O1 (stereo not given in full) ; retrieve measured TGI.
> 50 µM

###

- Test system: U251 CNS
- experimentSummary: NCI tumour cell line growth inhibition, 48 h
reportedProperty: TGI

molecule=O=C1NC2(CCCC2)C(=O)C12CCCC2 result="> 100 µM"
molecule="OCC1CCCC(n2cnc3c(=S)nc[nH]c32)O1 (centres undefined)" result="> 100 µM"

Lab note: need TGI for O=C(O)c1ccc(NC(c2ccccc2)c2ccc3cccnc3c2O)cc1 (centres undefined) on U251 CNS, anyone have it?
> 41.2 µM

Lab note: need TGI for COc1ccc(-c2c(C#N)c(N)n(C3OC(CO)C(O)C(O)C3O)c(=S)c2C#N)cc1 (centres undefined) on U251 CNS, anyone have it?
> 100 µM

Lab note: need TGI for `Cc1ccc(-c2cc(N)n(-c3nc4c([nH]3)c(=O)n(C)c(=O)n4C)n2)cc1` on U251 CNS, anyone have it?
> 100 µM

Lab note: need TGI for `COC(=O)c1cc(CC(C)C)c2c(c1)[nH]c1ccccc12` on U251 CNS, anyone have it?
> 100 µM

Lab note: need TGI for CCC(=O)C(c1ccccc1)c1ccccn1 (centres undefined) on U251 CNS, anyone have it?
> 100 µM

Lab note: need TGI for `C=CCN(CC=C)Cn1c(=S)sc2ccccc21` on U251 CNS, anyone have it?
> 100 µM

Lab note: need TGI for `C=CCSC[C@H](NC(=O)COc1ccccc1)C(=O)NC(C(=O)OCc1ccc([N+](=O)[O-])cc1)=C(C)C` on U251 CNS, anyone have it?
> 100 µM

###

The entries below are paired with their reported TGI.
- Test system: NCI-H226 lung
- experimentSummary: NCI tumour cell line growth inhibition, 48 h

Solved entries:
molecule=CN(C)CC(=O)N1CCC(c2ccc(NC(=O)c3ncc(C#N)[nH]3)c(C3=CCCCC3)c2)CC1 result="24.2 µM"
molecule="COC1(C)CC2N(C(=O)c3ccccc3)N=C(c3ccccc3)CC2(C)O1 (stereo not drawn)" result="> 100 µM"
molecule="CCC(=O)C(c1ccccc1)c1ccccn1 (stereo not drawn)" result="> 100 µM"
molecule=COc1ccc(C(=S)N2CCN(c3cccc(Cl)c3)CC2)cc1 result="> 100 µM"

Param item = `C=CC(=O)Nc1cccc(-c2nc(SC)nc(Nc3ccccc3OC)c2C#N)c1` ; retrieve measured TGI.
36.1 µM

Param item = CC(C)(C)OC(=O)NC(Cc1ccccc1)C(=O)OCN1C(=O)C2C3C=CC(C2C1=O)C1C2C(=O)N(COC(=O)C(Cc4ccccc4)NC(=O)OC(C)(C)C)C(=O)C2C31 (stereo not drawn) ; retrieve measured TGI.
> 96.4 µM
